Assay: Pharmacokinetic test in mice
Type: in vivo
Conditions: mouse, plasma; male ICR mice, oral gavage administration (5 mg/kg)
Some compounds, each annotated with its measured AUC(0-t).
Report only the number, with the unit ng·h/mL understood.

{"COMPOUND": "Cc1cc(OCCN2C[C@H]3COC[C@H]3C2)ccc1-c1ccc(CC(=O)NCc2ccccc2)nc1 [Compound of Formula I]", "MEASUREMENT_UNITS": "ng·h/mL", "AUC(0-t)": 443}

Just so you know, measured AUC(0-t) for O=C(Cc1ccc(-c2ccc(OCCN3CCOCC3)cc2)cn1)NCc1ccccc1 [Control compound, Tirbanibulin, reference compound] came out at 1820

Numbers sourced from patent EP4745130A1.
